Test system: human APOE RNA
Assay: Activity in APOE C57BL/6NTac-Apoeem7250 knock-in mice, single ICV bolus, 16 weeks (Example 12)
Type: in vivo
Settings: cortex; single ICV bolus 300 μg; 16 weeks post treatment; normalized to mouse Ppia
Strand notation (5' to 3'): a small letter for the sugar, then the base; units joined by * are phosphorothioate-linked, units joined directly phosphodiester-linked; [ ] holds rarer units or linkages, { } end groups; capitals alone tell only the bases. [ms] = mesyl phosphoramidate linkage; e = 2'-O-(2-methoxyethyl) (MOE); k = constrained ethyl (cEt); [5mC] = 5-methylcytosine; d = 2'-deoxy (DNA)

substance | APOE RNA (% control) Cortex
1693106: 6-10-4 MOE gapmer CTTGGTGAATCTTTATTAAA, linkages sssssszzzssssszssss (e[5mC]*eT*eT*eG*eG*eT*dG[ms]dA[ms]dA[ms]dT*d[5mC]*dT*dT*dT*dA[ms]dT*eT*eA*eA*eA) [compound 1693106] | 78
1778114: modified oligonucleotide complementary to human APOE RNA (eA*e[5mC]eTeTkG*kG*dT*dG[ms]dA[ms]dA*dT*d[5mC]*dT*dT*dT*dA[ms]eTeT*eA*eA; antisense) [compound 1778114] | 52
1778128: modified oligonucleotide complementary to human APOE RNA (eA*e[5mC]eTeTkGkG*dT*dG[ms]dA[ms]dA*dT*d[5mC]*dT*dT*dT*dA[ms]kTeT*eA*eA; antisense) [compound 1778128] | 34
1681004: 5-10-5 MOE gapmer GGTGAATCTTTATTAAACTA, linkages ssooszsssszzszsooss (antisense eG*eG*eTeGeA*dA[ms]dT*d[5mC]*dT*dT*dT[ms]dA[ms]dT*dT[ms]dA*eAeAe[5mC]*eT*eA) [compound 1681004] | 127
1778117 (eA*e[5mC]eTeTeG*eG*dT*dG[ms]dA[ms]dA*dT*d[5mC]*dT*dT*dT*dA[ms]kT*eT*eA*eA; antisense) [Compound 1778117] | 65
